pKd: −log10 of the molar value.
Let's look at some pKd data for Tyrosine-protein kinase JAK3 (Homo sapiens, UniProt P52333) that I collected from the literature.

INSERT INTO results (molecule, target_under_test, result) VALUES
  ('COc1ccccc1C(=O)Nc1ccc(Nc2n[nH]c(NCc3cc(C)c(O)c(C)c3)c2C(N)=O)cc1', 'Tyrosine-protein kinase JAK3 (Homo sapiens, UniProt P52333)', '< 6.00'),
  ('Fc1ccc(C(F)(F)c2nc(Nc3nc[nH]n3)c3ccccc3n2)nc1', 'Tyrosine-protein kinase JAK3 (Homo sapiens, UniProt P52333)', '< 7.00'),
  ('Cc1cc(CNc2[nH]nc(Nc3cccc(C#N)c3)c2C(N)=O)cc(C)c1O', 'Tyrosine-protein kinase JAK3 (Homo sapiens, UniProt P52333)', '< 6.00'),
  ('Cc1cc(CNc2[nH]nc(Nc3ccc(N4CCC(F)CC4)cc3)c2C(N)=O)cc(C)c1O', 'Tyrosine-protein kinase JAK3 (Homo sapiens, UniProt P52333)', '< 6.00');

Record pKd for all entries; do not skip any.
1. Cc1cc(CNc2[nH]nc(Nc3ccc(N4CCS(=O)(=O)CC4)cc3)c2C(N)=O)cc(C)c1O
2. COC(=O)c1cccc2c(Nc3cc(C)[nH]n3)nc(C(F)(F)c3ccc(F)cn3)nc12
3. COCCn1ccc2c(Nc3cc[nH]n3)nc(S(=O)(=O)c3ccc(F)cc3)nc21
4. CC1Oc2ccc3ncc(n3n2)C(=O)NCCOc2ccc(F)cc21 (centres unmarked)
5. Cc1ccc2c(Nc3cc(C)[nH]n3)nc(C(F)(F)c3ccc(F)cc3)nc2c1

// result
["6.00 to 7.00", "≥ 8.00", "≥ 8.00", 7.48, "≥ 8.00"]

###

Let's look at some Kd data for UniProt P52333 that I collected from the literature.

Record Kd for all entries; do not skip any.
1. Cc1cc(Nc2nc(C(F)(F)c3ccc(F)cn3)nc3c([N+](=O)[O-])cccc23)n[nH]1
2. CCc1cc(O)c(F)cc1-c1ccc2c(-c3nc4c([nH]3)CCN(C(=O)c3cnc(N(C)CCN5CCCC5=O)cn3)C4)n[nH]c2c1
3. Cc1cc(Nc2nc(C(F)(F)c3ccc(F)cc3)nc3nc(N4CCN(C)CC4)sc23)n[nH]1

// result
10 to 100 nM
0.092 nM
≤ 10 nM

// query Kd for `CCn1ccc2c(Nc3cc(OC)[nH]n3)nc(S(=O)(=O)c3ccc(F)cc3)nc21` ?
// result ≤ 10 nM

###

Let's look at some Kd data for Tyrosine-protein kinase JAK3 (Homo sapiens) that I collected from the literature.

// solved cases for Kd follow
INSERT INTO results (compound, result) VALUES
  ('Cc1cc(CNc2[nH]nc(Nc3ccc(N4C[C@@H](C)O[C@@H](C)C4)nc3)c2C(N)=O)cc(C)c1O', '> 1000 nM'),
  ('Cn1ccc2c(Nc3cc[nH]n3)nc(S(=O)(=O)c3ccc(F)cc3)nc21', '≤ 10 nM'),
  ('Cc1cc(Nc2nc(C(N)c3ccc(F)cc3)nc3ccccc23)n[nH]1 (racemic)', '10 to 100 nM'),
  ('Cc1cc(Nc2nc(C(F)(F)c3ccc(F)cn3)nc3c(Br)cccc23)n[nH]1', '10 to 100 nM'),
  ('CC(=O)Nc1cccc(Nc2n[nH]c(NCc3cc(C)c(O)c(C)c3)c2C(N)=O)c1', '> 1000 nM'),
  ('Cc1cc(Nc2nc(C(F)(F)c3ccc(F)cc3)nc3nc(N4CCOCC4)sc23)n[nH]1', '≤ 10 nM');

Record Kd for all entries; do not skip any.
1. CCn1ccc2c(Nc3cc[nH]n3)nc(S(=O)(=O)c3ccc(F)cc3)nc21
2. Cc1cc(Nc2nc(C(F)(F)c3ccc(F)cn3)nc3c(C(=O)O)cccc23)n[nH]1

// result
≤ 10 nM
≤ 10 nM

###

Let's look at some pKd data for Tyrosine-protein kinase JAK3 (Homo sapiens) that I collected from the literature.
pKd: −log10 of the molar value.

Record pKd for all entries; do not skip any.
1. Cc1cc(CNc2[nH]nc(Nc3ccc(N4CCN(C)CC4)cc3)c2C(N)=O)cc(C)c1O
2. O=C(c1cccc(F)c1)c1nc(Nc2cc[nH]n2)c2ccccc2n1
3. Cc1cc(CNc2[nH]nc(Nc3ccc(-c4cc[nH]n4)cc3)c2C(N)=O)cc(C)c1O

// result
< 6.00
< 7.00
< 6.00

Record pKd for all entries; do not skip any.
1. Cc1cc(Nc2nc(C(C)(O)c3ccc(F)cc3)nc3ccsc23)n[nH]1 (racemic)
2. Cc1cc(Nc2nc(C(F)(F)c3ccc(F)cn3)nc3ccccc23)n[nH]1
3. Cc1cc(CNc2[nH]nc(Nc3cnc(N4CCOCC4)c(Cl)c3)c2C(N)=O)cc(C)c1O
4. Cc1cc(Nc2nc(C(NC3CC3)c3ccc(F)cc3)nc3ccccc23)n[nH]1 (centres unmarked)
5. Cc1cc(Nc2nc(C(O)c3ccc(F)cc3)nc3c(C)cccc23)n[nH]1 (racemic)

// result
1: ≥ 8.00; 2: ≥ 8.00; 3: < 6.00; 4: 7.00 to 8.00; 5: 7.00 to 8.00

###

Let's look at some pKd data for Tyrosine-protein kinase JAK3 (Homo sapiens) that I collected from the literature.
pKd: −log10 of the molar value.

Record pKd for all entries; do not skip any.
1. Cc1cc(Nc2nc(C(F)(F)c3ccc(F)cn3)nc3cc(C4CC4)ccc23)n[nH]1
2. Cc1cc(CNc2[nH]nc(Nc3ccc(C(C)(C)C)cc3)c2C(N)=O)cc(C)c1O
3. Cc1cc(CNc2[nH]nc(Nc3ccc(N4CCN(C(=O)N5CCOCC5)CC4)cc3)c2C(N)=O)cc(C)c1O
4. COc1ccccc1C(=O)c1nc(Nc2cc(C)[nH]n2)c2ccccc2n1
5. O=C(c1ccc(F)cc1)c1nc(Nc2cc[nH]n2)c2ccccc2n1

// result
["≥ 8.00", "< 6.00", "> 7.30", "< 7.00", "7.00 to 8.00"]

Record pKd for all entries; do not skip any.
1. COc1ccc2c(Nc3cc[nH]n3)nc(C(F)(F)c3ccc(F)cc3)nc2c1
2. Cc1cc(Nc2nc(C(F)(F)c3ccc(F)cc3)nc3c(F)cccc23)n[nH]1
3. Cc1cc(Nc2nc(S(=O)(=O)c3ccc(F)cc3)nc3[nH]ncc23)n[nH]1

// result
["< 7.00", "7.00 to 8.00", "7.00 to 8.00"]

###

Let's look at some Kd data for Tyrosine-protein kinase JAK3 (Homo sapiens) that I collected from the literature.

// solved cases for Kd follow
INSERT INTO results (molecule, target_under_test, property_name, result) VALUES
  ('Cc1cc(Nc2nc(C(F)(F)c3ccc(F)cn3)nc3c(N)cccc23)n[nH]1', 'Tyrosine-protein kinase JAK3 (Homo sapiens)', 'Kd', '≤ 10 nM'),
  ('Cc1cc(CNc2[nH]nc(Nc3ccc(N4CCC(N5CCCC5)CC4)nc3)c2C(N)=O)cc(C)c1O', 'Tyrosine-protein kinase JAK3 (Homo sapiens)', 'Kd', '100 to 1000 nM'),
  ('CCc1cc(O)c(F)cc1-c1ccc2c(-c3nc4c([nH]3)CCN(C(=O)N3CCC(N5CCCCC5)CC3)C4)n[nH]c2c1', 'Tyrosine-protein kinase JAK3 (Homo sapiens)', 'Kd', '0.046 nM');

Record Kd for all entries; do not skip any.
1. Cc1cc(Nc2nc(S(=O)(=O)c3ccc(F)cc3)nc3c2ccn3C)n[nH]1
2. Cc1cc(Nc2nc(C(CS(C)(=O)=O)c3ccc(F)cc3)nc3ccccc23)n[nH]1 (centres unmarked)
3. [O-][S+](c1ccc(F)cc1)c1nc(Nc2cc[nH]n2)c2cc[nH]c2n1 (racemic)

// result
["≤ 10 nM", "10 to 100 nM", "10 to 100 nM"]

Record Kd for all entries; do not skip any.
1. Cc1cc(Nc2nc([S+]([O-])c3ccc(F)cc3)nc3[nH]ccc23)n[nH]1 (racemic)
2. COc1cc(Nc2nc(C(=O)c3ccc(F)cc3)nc3ccccc23)n[nH]1

// result
≤ 10 nM
10 to 100 nM

###

Let's look at some Kd data for Tyrosine-protein kinase JAK3 (Homo sapiens, UniProt P52333) that I collected from the literature.

// solved cases for Kd follow
INSERT INTO assay_data (molecule, result) VALUES
  ('CCc1cccc2c(Nc3cc(C)[nH]n3)nc(C(F)(F)c3ccc(F)cn3)nc12', '10 to 100 nM'),
  ('Cc1cc(Nc2nc(C(F)(F)c3ccc(F)cc3)nc3nn(C)cc23)n[nH]1', '10 to 100 nM'),
  ('Cc1cc(Nc2nc(C(O)c3ccc(F)cc3)cc3ccccc23)n[nH]1 (racemic)', '≤ 10 nM');

We next turn to a different molecule, shown below.
// query Kd for `Cc1cc(Nc2nc(C(F)(F)c3ccc(F)cn3)nc3nn(C4CCCC4)cc23)n[nH]1` ?
// result ≤ 10 nM
